- Tested on: Staphylococcus aureus
- Assay remarks: Antibacterial activity against Staphylococcus aureus PSCB-0330
- Format: functional
Give MIC for every item shown.

Recorded MIC, per entry:
>  <Molecule>
CC[C@H]1OC(=O)CC(=O)[C@H](C)[C@@H](O[C@@H]2O[C@@H](C)[C@@H](O)[C@@H](N(C)C)[C@H]2O)[C@H]2C[C@H](O)[C@@](C)(C2)C(=O)/C=C/C(C)=C/[C@@H]1CO[C@@H]1O[C@@H](C)[C@@H](O)[C@@H](OC)[C@@H]1OC

>  <MIC>
> 128 µg/mL

$$$$
>  <Molecule>
CCOC(=O)/C=C/C[C@H]1C[C@@H](C)C(=O)/C=C/C(C)=C/[C@H](COC2OC(C)C(O)C(OC)C2OC)[C@@H](CC)OC(=O)C[C@@H](OC(=O)Cc2ccc([N+](=O)[O-])cc2)[C@H](C)[C@H]1OC1OC(C)C(O)C(N(C)C)C1O (some centres undefined)

>  <MIC>
> 128 µg/mL

$$$$
>  <Molecule>
CC[C@H]1OC(=O)CC(=O)[C@H](C)[C@@H](O[C@@H]2O[C@@H](C)[C@@H](O)[C@@H](N(C)C)[C@H]2O)[C@H]2C[C@@H](O)[C@](C)(C2)C(=O)/C=C/C(C)=C/[C@@H]1CO[C@@H]1O[C@@H](C)[C@@H](O)[C@@H](OC)[C@@H]1OC

>  <MIC>
> 128 µg/mL

$$$$
>  <Molecule>
CC[C@H]1OC(=O)/C=C\[C@H](C)[C@@H](OC2OC(C)C(O)C(N(C)C)C2O)[C@@H](CC=O)C[C@@H](C)C(=O)/C=C/C(C)=C/[C@@H]1COC1OC(C)C(O)C(OC)C1OC (some centres undefined)

>  <MIC>
> 128 µg/mL

$$$$
>  <Molecule>
CCOC(=O)/C=C/C[C@H]1C[C@@H](C)C(=O)/C=C/C(C)=C/[C@H](COC2OC(C)C(O)C(OC)C2OC)[C@@H](CC)OC(=O)C[C@@H](O)[C@H](C)[C@H]1OC1OC(C)C(O)C(N(C)C)C1O (some centres undefined)

>  <MIC>
> 128 µg/mL

$$$$
>  <Molecule>
CC[C@H]1O/C(O)=C/C(=O)[C@H](C)[C@@H](OC2OC(C)C(O)C(N(C)C)C2O)[C@@H](CC=O)C[C@@H](C)C(=O)CCC(C)C[C@@H]1COC1OC(C)C(O)C(OC)C1OC (some centres undefined)

>  <MIC>
> 128 µg/mL

$$$$

Each of the following entries comes with a recorded value; kindly state MIC for each.
1. CC[C@H]1OC(=O)C[C@@H](O)[C@H](C)[C@@H](OC2OC(C)C(O)C(N(C)C)C2O)[C@@H](C/C=C/C(=O)OC)C[C@@H](C)C(=O)/C=C/C(C)=C/[C@@H]1COC1OC(C)C(O)C(OC)C1OC (some centres undefined)
2. CC[C@H]1O/C(O)=C/C(=O)[C@H](C)[C@@H](OC2OC(C)C(O)C(N(C)C)C2O)[C@@H](C/C=C/C(=O)OC)C[C@@H](C)C(=O)/C=C/C(C)=C/[C@@H]1COC1OC(C)C(O)C(OC)C1OC (some centres undefined)
3. CC[C@H]1OC(=O)C[C@@H](O)[C@H](C)[C@@H](OC2OC(C)C(O)C(N(C)C)C2O)[C@@H](C/C=C/C(=O)O)C[C@@H](C)C(=O)/C=C/C(C)=C/[C@@H]1COC1OC(C)C(O)C(OC)C1OC (some centres undefined)

output:
1: > 128 µg/mL; 2: > 128 µg/mL; 3: > 128 µg/mL
